- Test system: OVCAR-3 (ovarian adenocarcinoma) cells
- Test Description: MTT cell viability assay, OVCAR-3 cells
- Type: cell-based
- Particulars: Homo sapiens, read-out: IC 50, inhibition in OVCAR-3 cells
Please go through the items and note down their IC50.
Field format: number, assumed µM, no unit text.

*Q* Recorded IC50 for C=C(C(=O)c1cc(OC)c(OC)cc1OC)c1ccc(OC)c(OC)c1 [Compound III] , please?
*A* 11.7

*Q* How about this molecule: C=C(C(=O)c1ccc(OC)cc1OC)c1ccc(OC)c(OC)c1 [Compound IV]
*A* 16.9

*Q* How about this molecule: C=C(C(=O)c1ccc(OC)c(OC)c1OC)c1ccc(OC)cc1 [Compound II]
*A* 3.3

Hey, just so you know, these numbers are from patent US8729134B2.
